# Test Name: qHTS assay for small molecule activators of the p53 signaling pathway (AID 651743); note: series mostly up to about 92 µM; % of control where 0% means no effect
# Condition Info: HCT-116 p53RE-bla, beta-lactamase FRET ratio, 16 h; hits give high values
Results filed as inconclusive are left out.
Endpoint: activation (%)
All answers are understood in %, so give the number only.

Looking for the measured activation of OC1CCC(C2CCCCC2)CC1 (stereo unspecified) , can you help? 3.92

For C[Si](Cl)(Cl)[Si](C)(Cl)Cl , what is its reported activation? 0.0231

Given Brc1ccc(Br)c(Br)c1 , state its recorded activation. -2.82

Entry under review: CC(=O)OC(C)(C)C1CC=C(C)CC1 (stereo unspecified) . Reported activation? -1.29

What does the data say about its activation? Entry: OCC(CO)(CO)COCC(CO)(CO)CO -2.73

Dear colleague, I am looking for the recorded activation of the following compound: Fc1ccc(Br)cc1 -1.54

Request the reported activation associated with CC(=O)OC1CCC(C(C)(C)C)CC1 (stereo unspecified) -2.06

Look up activation for this compound: Nc1c(N=Nc2ccc(S(=O)(=O)CCOS(=O)(=O)O)cc2)c(S(=O)(=O)O)cc2cc(S(=O)(=O)O)c(N=Nc3ccc(S(=O)(=O)CCOS(=O)(=O)O)cc3)c(O)c12 -4.94

Dear colleague, I am looking for the recorded activation of the following compound: C[N+](C)(C)CC(O)CCl (stereo unspecified) 0.454

What does the data say about its activation? Entry: C=C(C)C(=O)OCCC[Si](OC)(OC)OC -1.41

Please report the recorded activation for CN(C)c1nc(=O)n(C2CCC(O)CC2)c(=O)n1C (stereo unspecified) . 2.9

Give its activation value. Item: C1=C/CC/C=C/CC/C=C/CC/1 -6.28

May I ask what activation has been recorded for CCCCCCCCCCCCCc1ccccc1 ? 1.08

Please report the recorded activation for c1cc(-c2ccncc2)ccn1 . -5.33

For the compound shown here, CC1(C)C(=O)N(Br)C(=O)N1Cl , give the reported activation. 2.83

Fill in: activation of Cc1ccc(C(=O)c2ccccc2)cc1 is ___ 3.79

Returns the measured activation for the input compound. Input: CCN(Cc1cccc(S(=O)(=O)O)c1)c1ccc(C(=C2C=CC(=[N+](CC)Cc3cccc(S(=O)(=O)[O-])c3)C=C2)c2ccccc2)cc1 -2.82

Which activation value belongs to CNc1nc(=O)n(C2CCC(O)CC2)c(=O)n1C (stereo unspecified) ? 1.92

Which activation value is on record for C=CC(=O)OCC(C)OCC(C)OCC(C)OC(=O)C=C (stereo unspecified) ? 0.712

Any idea what its activation is? The compound is O=C(Cl)c1cc(Cl)cc(Cl)c1 -0.691

Dear colleague, I am looking for the recorded activation of the following compound: Cc1ccc(Cl)cc1Cl 1.63

Reported activation for C[Si](C)(Cl)[Si](C)(C)Cl : what is it? -0.0629

Which activation is reported for this compound? C/C=C/C=C/CCCCCCCO 7.24

I would be grateful if you could share the reported activation for CCCOC(=O)c1ccc(C(=O)OCCC)nc1 . -3.13

# get_value(readout='activation', item= CC(=O)N(CCN(C(C)=O)C(C)=O)C(C)=O ) 0.892

Dear colleague, I am looking for the recorded activation of the following compound: CCCCCCCCCCCCCCO -1.8

Entry CS/C(=N\O)C(=O)N(C)C has what activation? -0.3

Entry CCCCC(CC)COC(=O)c1ccc(C(=O)OCC(CC)CCCC)cc1 (stereo unspecified) : reported activation = ? 0.101

activation lookup needed for O=C(O)C(Oc1ccc(Cl)cc1)Oc1ccc(Cl)cc1 , thanks. 2.64

Which activation value belongs to COc1ccccc1NC(=O)CC(C)=O ? -7.86

Value lookup for activation; key = CCCCOCC(C)O (stereo unspecified) -6.14

What measured activation goes with C=C(C)C(=O)OCCN(C)C ? -0.52

Returns the measured activation for the input compound. Input: CC(C)OB(OC(C)C)OC(C)C 0.574

Query: activation; subject: CCCCCCCC(=O)Oc1c(Br)cc(C#N)cc1Br 6.26

# activation lookup, item C=CC(=O)OCCOCC(CC)(COCCOC(=O)C=C)COCCOC(=O)C=C 14.9

What measured activation goes with COC(=O)C(C)Oc1ccc(Oc2ncc(C(F)(F)F)cc2Cl)cc1 (stereo unspecified) ? -4.64

Which value of activation has been reported for c1ccc2c(c1)ccc1c3ccccc3ccc21 in the records? 0.403

activation lookup needed for CN(C)c1ccc(C(c2ccccc2)c2ccc(N(C)C)cc2)cc1 , thanks. -0.413

What does the data say about its activation? Entry: COC(=O)c1ccccc1S(=O)(=O)NC(=O)Nc1nc(OC(F)F)cc(OC(F)F)n1 -4.45

What does the data say about its activation? Entry: CCCCCCCCCCCCN -7.19

GET /values?readout=activation&item= CC/C=C\CCOC(=O)c1ccccc1O -5.63

Looking for the measured activation of O=S(c1ccc(Cl)cc1)c1cc(Cl)c(Cl)cc1Cl (stereo unspecified) , can you help? 3.87

Can you look up the measured activation of NC(=O)Cc1cccc2ccccc12 for me? 1.36

Entry Brc1ccc(Oc2ccc(Br)cc2)cc1 has what activation? 0.901

Any idea what activation was measured for C[Si](Cl)(Cl)c1ccccc1 ? -1.52

Look up activation for this compound: CCOC(=O)CC(O)(CC(=O)OCC)C(=O)OCC -0.036

I would be grateful if you could share the reported activation for CCCCCCCCCCCCCCN(C)C . 5.52

// query activation value for entry CCCCCCCCCCCCO -3.58

I'd like to know its activation. The compound in question is O=C=NCCCCCCN=C=O 1.63

Consider the compound shown here: Clc1nc(Cl)c(Cl)c(Cl)c1Cl What is its recorded activation? -0.354

activation for O=C(O)CN(CCO)CCN(CC(=O)O)CC(=O)O ? -0.291

State the recorded activation for this entry: CCCCCCCC/C=C\CCCCCCCC(=O)OC 1.64

Returns the measured activation for the input compound. Input: FC(F)(F)c1ccc(Cl)c(Cl)c1 -5.24

# query: activation of entry OCCOCCOCCOCCOCCO 2.86

Entry COC(=O)c1c(Cl)nn(C)c1S(=O)(=O)NC(=O)Nc1nc(OC)cc(OC)n1 : reported activation = ? -0.555

Given the compound CCSC(=O)N(CC(C)C)CC(C)C , what is its reported activation? -3.92
